Tested on: Bowes
method_notes: drug sensitivity score (DSS) (DSS (unitless, 0-50 scale)); higher = more sensitive (stronger viability inhibition); extreme values may be limits of the assay
condition_notes: 72 h; culture: 2D
Entry flag: t if drug sensitivity score reaches 2; f if it does not.

Entry `CN(C)CCCOc1ccc(-c2ccc3ncc4c(c3c2)n(C2CCOCC2)c(=O)n4C)cn1` : is its drug sensitivity score no less than 2?
f

Entry `COc1cc(Br)c(Nc2nc(-c3c(C)nc4ncccn34)cs2)c(Br)c1` : is its drug sensitivity score no less than 2?
t

Entry `COc1cccc2c1C(=O)c1c(O)c3c(c(O)c1C2=O)C[C@@](O)(C(C)=O)C[C@@H]3O[C@H]1C[C@H](N)[C@H](O)[C@H](C)O1` : is its drug sensitivity score no less than 2?
t

Entry `CNC(=O)c1ccccc1Sc1ccc2c(/C=C/c3ccccn3)n[nH]c2c1` : is its drug sensitivity score no less than 2?
f

Entry `Nc1ccn([C@@H]2O[C@H](CO)[C@@H](O)[C@@H]2O)c(=O)n1` : is its drug sensitivity score no less than 2?
f

Entry `C[C@@H]1CN(Cc2ccc(F)cc2)[C@@H](C)CN1C(=O)c1cc2c(C(=O)C(=O)N(C)C)cn(C)c2cc1Cl` : is its drug sensitivity score no less than 2?
f

Entry `CC[C@]1(O)C[C@H]2CN(CCc3c([nH]c4ccccc34)[C@@](C(=O)OC)(c3cc4c(cc3OC)N(C=O)[C@H]3[C@@](O)(C(=O)OC)[C@H](OC(C)=O)[C@]5(CC)C=CCN6CC[C@]43[C@@H]65)C2)C1` : is its drug sensitivity score no less than 2?
t

Entry `C=CC(=O)Nc1cccc(Oc2nc(Nc3ccc(N4CCN(C)CC4)cc3)nc3ccsc23)c1` : is its drug sensitivity score no less than 2?
f

Entry `Cn1nccc1Nc1nccc(-c2ccn([C@H](CO)c3ccc(Cl)c(F)c3)c(=O)c2)n1` : is its drug sensitivity score no less than 2?
f

Entry `COc1cc2/c(=N/c3ccc(Br)cc3F)nc[nH]c2cc1OCC1CCN(C)CC1` : is its drug sensitivity score no less than 2?
f

Entry `Nc1ccccc1NC(=O)c1ccc(CNc2nccc(-c3cccnc3)n2)cc1` : is its drug sensitivity score no less than 2?
t

Entry `COCCNCc1ccc(-c2cc3nccc(Oc4ccc(NC(=S)NC(=O)Cc5ccc(F)cc5)cc4F)c3s2)nc1` : is its drug sensitivity score no less than 2?
f

Entry `S=C(NCc1ccc2c(c1)OCO2)N1CCN(c2ncnc3c2oc2ccccc23)CC1` : is its drug sensitivity score no less than 2?
t

Entry `CCN1C(=O)CNc2ncc(-c3ccc(-c4nc[nH]n4)nc3C)nc21` : is its drug sensitivity score no less than 2?
t

Entry `Cn1c(Nc2ccc(C(F)(F)F)cc2)nc2cc(Oc3ccnc(-c4ncc(C(F)(F)F)[nH]4)c3)ccc21` : is its drug sensitivity score no less than 2?
f

Entry `CC1(C)OCCn2c1nc1c(N3CCOCC3)nc(-c3cnc(N)nc3)nc12` : is its drug sensitivity score no less than 2?
t
